# Assay method text: Mouse pharmacokinetics in CD-1 mice (blood, kidney, liver, lung)
# Format: in vivo
# Recorded conditions: male, CD-1, mouse, blood, intravenous, 1 mg/kg, Blood; 0.25 h; 1 mg/kg IV; mean; read-out: Concentration (µM) from 1 mg/kg Dosing Blood
# Description: For the PK study, a total of 42 male CD-1 mice weighing ~20-35 g were acquired from Lingchang/Vital River Laboratory Animal Co., Ltd. (Shanghai/Beijing, P.R. China) and divided into 2 treatment groups. […] For the low-dose groups, nine animals were required for organ quantification with termination at 24 hours. For the high-dose groups, 12 animals were required for organ quantification with termination at 48 hours. […] The concentrations of […] were quantified by an LC-MS/MS method. […]
Measurement name: concentration at 0.25 h

Query block: What value of concentration at 0.25 h has been reported for the following molecule? Cc1ncsc1-c1ccc(C(C)NC(=O)C2CC(O)CN2C(=O)C(c2cc(N3CCC(CN4CCC(OC5CC(Oc6cc(N7C8CCC7CN(c7cc(-c9ccccc9O)nnc7N)C8)ccn6)C5)CC4)CC3)no2)C(C)C)cc1 (stereo not shown)
Result block: 0.095 µM
